pEC50 reference
Biological target: NL20 human bronchial epithelial cells expressing human Z-AAT (Homo sapiens, UniProt P01009, E366K)
Construct: doxycycline added with compounds)
Sequence (P01009 25-418 E366K): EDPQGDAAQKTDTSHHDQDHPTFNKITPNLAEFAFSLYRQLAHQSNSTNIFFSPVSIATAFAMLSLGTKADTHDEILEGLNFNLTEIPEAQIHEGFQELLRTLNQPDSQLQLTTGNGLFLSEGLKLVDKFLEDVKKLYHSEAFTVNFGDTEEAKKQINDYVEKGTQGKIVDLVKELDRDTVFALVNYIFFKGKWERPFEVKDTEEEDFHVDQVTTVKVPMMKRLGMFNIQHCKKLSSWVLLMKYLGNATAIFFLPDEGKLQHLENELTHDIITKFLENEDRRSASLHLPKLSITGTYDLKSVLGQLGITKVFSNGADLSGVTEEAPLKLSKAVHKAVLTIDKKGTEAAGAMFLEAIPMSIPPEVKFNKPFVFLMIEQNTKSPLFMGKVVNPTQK
Experiment: AAT Function Assay (MSD Assay NL20-SI Cell Line)
Settings: read-out: NL20 Functional EC50
pEC50: −log10 of the molar value.

[[record]]
compound = "N#CCC1(c2c(-c3ccc(C(=O)O)c(F)c3F)c3c(O)cc(F)cc3n2-c2ccc(F)c(F)c2)CCC1 [Compound 462]"
quantity = "pEC50"
recorded_measurement = "< 5.70"

[[record]]
compound = "Cc1cc(-n2c(C(C)C)c(C3CC4(CC(C(=O)O)C4)C3)c3cc(F)ccc32)ccc1F (stereo not drawn) [Compound W1]"
quantity = "pEC50"
recorded_measurement = "< 5.70"


Input: Look up pEC50 for this compound: O=C(OC1O[C@H](C(=O)O)[C@@H](O)[C@H](O)[C@H]1O)c1ccc(-c2c(C3CCOCC3)n(-c3ccc(F)c(F)c3)c3cc(F)cc(O)c23)cc1 (stereo partly drawn) [Compound 172]
Output: 5.70 to 6.30

The values you see were collected from patent US20230159502A1.
